For each record, write down the corresponding kd2.
- tgt: T1, his-tagged human BCMA protein (ACROBiosystems, catalog # BCA-H522y-100 ug) (human, UniProt Q02223 1-54)
- T1 construct: limits of the bought construct are not otherwise stated; also called recombinant his-tagged human BCMA; not shown: his tag of the bought protein
- T1 sequence: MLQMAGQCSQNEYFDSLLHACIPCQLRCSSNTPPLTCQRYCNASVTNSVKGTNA
- protocol_details: SPR (Biacore T200), antibody captured on anti-human Fc, his-tagged human BCMA as analyte; fit with ka1/kd1/ka2/kd2 (model not named)
Numbers only, in s⁻¹.

Some binders with recorded kd2:
BCA7-2E8 antibody (antibody, V domains shown) VH: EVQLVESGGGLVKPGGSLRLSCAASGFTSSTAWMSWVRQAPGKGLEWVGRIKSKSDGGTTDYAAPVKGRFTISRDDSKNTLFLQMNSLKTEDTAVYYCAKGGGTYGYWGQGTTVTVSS VL: QSVLTQPASVSGSPGQSVTISCTGTSSDVGGYNYVSWYQQHPGKAPKLMIYDVSNRPSGVSNRFSGSKSGNTASLTISGLQAEDEADYYCGSLRSNGDYVFGTGTTLTVL :: 0.00707
BCA7-2D11 antibody (antibody, V domains shown) VH: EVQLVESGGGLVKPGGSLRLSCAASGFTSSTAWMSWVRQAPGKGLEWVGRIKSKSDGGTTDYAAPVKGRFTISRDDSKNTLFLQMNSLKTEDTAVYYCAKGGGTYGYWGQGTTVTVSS VL: SYELTQPASVSGSPGQSVTISCTGTSSVVGGHDYVSWYQQHPGKAPKLMIYDVSNRPSGVSNRFSGSKSGNTASLTISGLQAEDEADYYCGSYTSSGSYVFGTGTKVTVL :: 0.00071
BCA7-2C5 antibody (antibody, V domains shown) VH: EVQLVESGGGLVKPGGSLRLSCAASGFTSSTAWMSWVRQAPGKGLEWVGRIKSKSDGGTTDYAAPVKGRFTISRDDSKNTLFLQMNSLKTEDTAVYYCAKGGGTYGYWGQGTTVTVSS VL: QSALTQPASVSGSPGQSVTISCTGTSSAHGGHYYVSWYQQHPGKAPKLMIYDVSNRPSGVSNRFSGSKSGNTASLTISGLQAEDEADYYCGSYTSSGSYVFGTGTKLTVL :: 0.00145
BCA7-2E1 antibody (antibody, V domains shown, also called BCA-2E1) VH: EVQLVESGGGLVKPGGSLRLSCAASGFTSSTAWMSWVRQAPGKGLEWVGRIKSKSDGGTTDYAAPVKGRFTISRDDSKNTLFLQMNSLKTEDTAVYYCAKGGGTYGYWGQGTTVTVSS VL: QSALTQPASVSGSPGQSVTISCTGTSSDGGGHTYVSWYQQHPGKAPKLMIYDVSNRPSWVSNRFSGSKSGNTASLTISGLQAEDEADYYCGSYTSSGSYVFGTGTKLTVL :: 0.000929
BCA7-2D8 antibody (antibody, V domains shown) VH: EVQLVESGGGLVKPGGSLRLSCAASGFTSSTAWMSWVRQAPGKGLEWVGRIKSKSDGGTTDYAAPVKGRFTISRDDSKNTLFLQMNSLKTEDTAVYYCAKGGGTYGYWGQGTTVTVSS VL: QSVLTQPASVSGSPGQSVTISCTGTSSSIGDSYYVSWYQQHPGKAPKLMIYDVSNRPSGVSNRFSGSKSGNTASLTISGLQAEDEADYYCGSYTSSGSYVFGTGTTLTVL :: 0.0026

Next binder, please.
According to the records, this binder BCA7-2G2 antibody (antibody, V domains shown) VH: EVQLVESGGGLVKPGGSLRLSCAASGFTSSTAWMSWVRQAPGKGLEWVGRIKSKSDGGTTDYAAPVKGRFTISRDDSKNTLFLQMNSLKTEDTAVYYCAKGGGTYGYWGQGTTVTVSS VL: QSVLTQPASVSGSPGQSVTISCTGTSSSVGGRQYVSWYQQHPGKAPKLMIYDVSNRPSGVSNRFSGSKSGNTASLTISGLQAEDEADYYCGSYTSSGSYVFGTGTKLTVL displays kd2 of 0.00121

Every entry's value here was drawn from patent US20210388097A1.
